Source: ChEMBL document CHEMBL3421606

# Experiment Description: Antioxidant activity assessed as glutathione peroxidase like activity after 3 mins by spectrophotometry
# Assay type: physicochemical
# Recorded Conditions: 0.05 h
Parameter Measured: Activity

Some compounds with recorded Activity:
{"Compound": "O=C(O)CCC(=O)Nc1ccc([Se][Se]c2ccc(NC(=O)CCC(=O)O)cc2)cc1", "Result": "Active"}
{"Compound": "CC(C)C(C(=O)NC(C)(C)C)N(CCc1c[nH]c2ccccc12)C(=O)c1ccccc1[Se][Se]c1ccccc1C(=O)N(CCc1c[nH]c2ccccc12)C(C(=O)NC(C)(C)C)C(C)C (stereo not given)", "Result": "Active"}
{"Compound": "O=C1C=CC(=O)N1c1ccc([Se][Se]c2ccc(N3C(=O)C=CC3=O)cc2)cc1", "Result": "Active"}
{"Compound": "O=C(O)/C=C\\C(=O)Nc1ccc([Se][Se]c2ccc(NC(=O)/C=C\\C(=O)O)cc2)cc1", "Result": "Active"}

Dear colleague, could you please provide Activity for the compounds listed below?
1. N#C[Se]c1ccc(N2C(=O)CCCC2=O)cc1
2. O=C1CCC(=O)N1c1ccc([Se][Se]c2ccc(N3C(=O)CCC3=O)cc2)cc1

Active
Active

---

# Experiment Description: Antioxidant activity assessed as DPPH free radical scavenging activity after 30 mins by spectrophotometry
# Format: physicochemical
# Recorded Conditions: 0.5 h
Parameter Measured: Activity

{"Compound": "N#C[Se]c1ccc(-n2[se]c3ccccc3c2=O)cc1", "Result": "Active"}
{"Compound": "O=C1C=CC(=O)N1c1ccc([Se][Se]c2ccc(N3C(=O)C=CC3=O)cc2)cc1", "Result": "Active"}
{"Compound": "O=C1CCCC(=O)N1c1ccc([Se][Se]c2ccc(N3C(=O)CCCC3=O)cc2)cc1", "Result": "Not Active"}
{"Compound": "N#C[Se]c1ccc(N2C(=O)CCCC2=O)cc1", "Result": "Not Active"}
{"Compound": "O=C(O)CCCC(=O)Nc1ccc([Se][Se]c2ccc(NC(=O)CCCC(=O)O)cc2)cc1", "Result": "Active"}
{"Compound": "N#C[Se]c1ccc(NC(=O)CCCC(=O)O)cc1", "Result": "Not Active"}
{"Compound": "Cc1ccc(C(C(=O)NC(C)(C)C)N(CCc2c[nH]c3ccccc23)C(=O)c2ccccc2[Se][Se]c2ccccc2C(=O)N(CCc2c[nH]c3ccccc23)C(C(=O)NC(C)(C)C)c2ccc(C)cc2)cc1 (centres undefined)", "Result": "Not Active"}
{"Compound": "CC(C)C(C(=O)NC(C)(C)C)N(CCc1c[nH]c2ccccc12)C(=O)c1ccccc1[Se][Se]c1ccccc1C(=O)N(CCc1c[nH]c2ccccc12)C(C(=O)NC(C)(C)C)C(C)C (centres undefined)", "Result": "Not Active"}
{"Compound": "N#C[Se]c1ccc(N2C(=O)C=CC2=O)cc1", "Result": "Not Active"}
{"Compound": "N#C[Se]c1ccc(NC(=O)/C=C\\C(=O)O)cc1", "Result": "Active"}

Dear colleague, could you please provide Activity for the compounds listed below?
1. N#C[Se]c1ccc(N2C(=O)CCC2=O)cc1
2. O=c1c2ccccc2[se]n1-c1ccccc1 [EBSELEN]
3. O=C1CCC(=O)N1c1ccc([Se][Se]c2ccc(N3C(=O)CCC3=O)cc2)cc1
4. O=c1c2ccccc2[se]n1-c1ccc([Se][Se]c2ccc(-n3[se]c4ccccc4c3=O)cc2)cc1

1: Not Active; 2: Active; 3: Not Active; 4: Active
